Molecular target: CYP 2B6 (Homo sapiens (Human))
Sequence (P20813 whole entry): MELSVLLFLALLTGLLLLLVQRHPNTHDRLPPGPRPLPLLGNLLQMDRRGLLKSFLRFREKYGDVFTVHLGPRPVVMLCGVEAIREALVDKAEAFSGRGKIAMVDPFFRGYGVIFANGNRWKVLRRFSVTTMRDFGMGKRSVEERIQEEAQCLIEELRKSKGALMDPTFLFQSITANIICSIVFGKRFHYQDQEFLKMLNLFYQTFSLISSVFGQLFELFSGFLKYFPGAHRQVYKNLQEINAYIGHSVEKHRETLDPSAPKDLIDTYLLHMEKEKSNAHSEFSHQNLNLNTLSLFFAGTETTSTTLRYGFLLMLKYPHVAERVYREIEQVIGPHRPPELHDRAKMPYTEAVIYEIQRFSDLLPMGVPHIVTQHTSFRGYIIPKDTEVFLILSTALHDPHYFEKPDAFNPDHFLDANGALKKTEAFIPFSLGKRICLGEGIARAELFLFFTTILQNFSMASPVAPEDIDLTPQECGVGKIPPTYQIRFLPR
pIC50: −log10 of the molar value.
Below, each of the compounds is paired with its reported pIC50 value.

C=CCn1c(=O)c2cnc(Nc3ccc(N4CCN(C)CC4)cc3)nc2n1-c1cccc(C(C)(C)O)n1 [AZD1775, reference compound]: < 5.00

Please look at the following compound next.
Query: // returns reported pIC50 for input C=CCn1c(=O)c2cnc(Nc3ccc(N4CCC5(CCN(C)CC5)CC4)cc3)nc2n1-c1ccc2c(n1)[C@H](O)C1(CC2)CC1 [Compound 37b]
Result: < 5.00

* * *

Experiment: Metabolic stability in liver microsomes, monkey
Assay type: in vitro ADME
Settings: read-out: T1/2 liver microsomes Monkey
readout name: half-life at 1 µM (min)
Report only the number, with the unit min understood.

Query: // returns reported half-life at 1 µM for input C=CCn1c(=O)c2cnc(Nc3ccc(N4CCN(C)CC4)cc3)nc2n1-c1cccc(C(C)(C)O)n1 [AZD1775, reference compound]
Result: 20.1

* * *

Assay: Metabolic stability in liver microsomes, dog
Assay type: in vitro ADME
Details: read-out: T1/2 liver microsomes Dog
readout name: half-life at 1 µM (min)
Report only the number, with the unit min understood.

Query: // returns reported half-life at 1 µM for input C=CCn1c(=O)c2cnc(Nc3ccc(N4CCN(C)CC4)cc3)nc2n1-c1cccc(C(C)(C)O)n1 [AZD1775, reference compound]
Result: 10.8

* * *

Test: Plasma protein binding (equilibrium dialysis), rat
Type: in vitro ADME
Conditions: 5 h dialysis, read-out: Plasma Protein binding (PPB) Rat (converted)
readout name: fraction unbound at 5 h, 1 µM
Answer with a number only.

Query: // returns reported fraction unbound at 5 h, 1 µM for input C=CCn1c(=O)c2cnc(Nc3ccc(N4CCN(C)CC4)cc3)nc2n1-c1cccc(C(C)(C)O)n1 [AZD1775, reference compound]
Result: 0.374

* * *

Biological target: CYP2C19 (Homo sapiens (Human), UniProt P33261)
Sequence (P33261 whole entry): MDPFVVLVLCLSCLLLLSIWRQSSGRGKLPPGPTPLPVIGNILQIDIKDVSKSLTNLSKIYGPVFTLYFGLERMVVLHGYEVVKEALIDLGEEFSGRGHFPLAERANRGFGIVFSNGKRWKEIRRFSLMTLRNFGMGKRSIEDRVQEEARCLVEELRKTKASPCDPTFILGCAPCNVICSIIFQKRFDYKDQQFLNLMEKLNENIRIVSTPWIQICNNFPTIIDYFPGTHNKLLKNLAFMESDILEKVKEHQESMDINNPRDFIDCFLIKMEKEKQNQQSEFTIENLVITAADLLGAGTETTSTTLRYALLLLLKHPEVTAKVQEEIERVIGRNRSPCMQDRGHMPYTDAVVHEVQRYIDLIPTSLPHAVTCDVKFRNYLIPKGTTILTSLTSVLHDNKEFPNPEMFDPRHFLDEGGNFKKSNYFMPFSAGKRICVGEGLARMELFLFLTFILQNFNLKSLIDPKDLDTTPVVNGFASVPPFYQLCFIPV
Test: Cytochrome P450 inhibition (fluorescence), CYP2C19
Type: in vitro ADME
Settings: read-out: IC50 CYP2C19
pIC50: −log10 of the molar value.
readout name: pIC50

C=CCn1c(=O)c2cnc(Nc3ccc(N4CCN(C)CC4)cc3)nc2n1-c1cccc(C(C)(C)O)n1 [AZD1775, reference compound]: 5.00 to 6.00

Query: // returns reported pIC50 for input C=CCn1c(=O)c2cnc(Nc3ccc(N4CCC5(CCN(C)CC5)CC4)cc3)nc2n1-c1ccc2c(n1)[C@H](O)C1(CC2)CC1 [Compound 37b]
Result: < 5.00

* * *

Experiment: Pharmacokinetics on single dose in mice (iv and po)
Type: in vivo, male ICR mice
Conditions: male, mouse, plasma; ICR mice, iv 1 mg/kg; read-out: C0
readout name: C0
Answer as a quantity: numeral, then unit.

Query: // returns reported C0 for input C=CCn1c(=O)c2cnc(Nc3ccc(N4CCN(C)CC4)cc3)nc2n1-c1cccc(C(C)(C)O)n1 [AZD1775, reference compound]
Result: 250 ng/mL

* * *

System: HK2 cells
Test: Cell Titer-Glo anti-proliferation, normal cells HK2
Assay type: cell-based
Below, each of the molecules is paired with its reported pIC50 value.
In simple prose, pIC50 is minus the logarithm base ten of a concentration in moles per litre.

Solved entries (count: 5):
C=CCn1c(=O)c2cnc(Nc3ccc(N4CCN(C)[C@@H](C)C4)cc3)nc2n1-c1ccc2c(n1)[C@@H](O)C1(CC2)CC1 (single isomer, unassigned) [Compound 56b]: 6.00
C=CCn1c(=O)c2cnc(Nc3ccc(N4CCC5(CCN(C)CC5)CC4)cc3)nc2n1-c1ccc2c(n1)[C@H](O)C1(CC2)CC1 [Compound 37b]: 5.82
C=CCn1c(=O)c2cnc(Nc3ccc(N4C[C@H]5CN(C)C[C@H]5C4)cc3)nc2n1-c1ccc2c(n1)C(O)(CC)C1(CC1)C2 (stereo partly drawn): 5.92
C=CCn1c(=O)c2cnc(Nc3ccc(N4CCN(C)CC4)cc3)nc2n1-c1ccc2c(n1)C(O)(C(F)(F)F)C1(CC1)C2 (stereo not drawn): 5.94
C=CCn1c(=O)c2cnc(Nc3ccc(N4CCC5(CCN(C)CC5)CC4)cc3)nc2n1-c1ccc2c(n1)C(C)(O)C1(CC1)C2 (stereo not drawn): 5.84

Please look at the following molecule next.
Query: // returns reported pIC50 for input C=CCn1c(=O)c2cnc(Nc3ccc(N4CCC(N(C)C)CC4)c(C)c3)nc2n1-c1ccc2c(n1)[C@@](C)(O)C1(CC2)CC1 (single isomer, unassigned) [Compound 52a]
Result: 6.32
